- Test system: MCF7
- test name: Antiproliferative activity against human MCF7 cells after 72 hrs by MTS assay
- Assay type: functional, cell-based
- condition info: MCF7, 72 h
Field: pIC50. Provide a value for each of the molecules that follow.
Give bare numbers, as −log10 of the molar value.

Sample records with pIC50:
input smiles	result value
Cc1cccc(C(=O)Nc2cccc(-c3ccc(OC4CCN(C)CC4)cc3)c2)c1	5.11
CN1CCC(Oc2ccc(-c3cccc(NC(=O)c4ccc5ccccc5c4)c3)cc2)CC1	5.78
CN1CCC(Oc2ccc(-c3cccc(NC(=O)c4ccc(Cl)cc4Cl)c3)cc2)CC1	5.41
COc1cccc(-c2cc(C(=O)Nc3cccc(-c4ccc(OC5CCN(C)CC5)cc4)c3)ccc2OC)c1	5.57

Report pIC50 for every entry below.
1. CN1CCC(Oc2ccc(-c3cccc(NC(=O)c4cc(Cl)cc(Cl)c4)c3)cc2)CC1
2. CN1CCC(Oc2ccc(-c3cccc(NC(=O)c4ccc(Br)cc4)c3)cc2)CC1
3. CN1CCC(Oc2ccc(-c3cccc(NC(=O)c4cccc(Cl)c4)c3)cc2)CC1
4. CN1CCC(Oc2ccc(-c3cccc(NC(=O)c4ccc(Cl)cc4)c3)cc2)CC1

1. 5.43
2. 6.06
3. 5.68
4. 5.65

Please give measured pIC50 of the following entry: CN1CCC(Oc2ccc(-c3cccc(NC(=O)c4ccccc4)c3)cc2)CC1 4.92
